// provenance: patent US20210246166A1

Entries and their human MASP1 IC50
Target: T1, recombinant human MASP1 active protease (amino acids 297-699, C-terminal His Tag) (human, UniProt P48740 297-699)
T1 sequence: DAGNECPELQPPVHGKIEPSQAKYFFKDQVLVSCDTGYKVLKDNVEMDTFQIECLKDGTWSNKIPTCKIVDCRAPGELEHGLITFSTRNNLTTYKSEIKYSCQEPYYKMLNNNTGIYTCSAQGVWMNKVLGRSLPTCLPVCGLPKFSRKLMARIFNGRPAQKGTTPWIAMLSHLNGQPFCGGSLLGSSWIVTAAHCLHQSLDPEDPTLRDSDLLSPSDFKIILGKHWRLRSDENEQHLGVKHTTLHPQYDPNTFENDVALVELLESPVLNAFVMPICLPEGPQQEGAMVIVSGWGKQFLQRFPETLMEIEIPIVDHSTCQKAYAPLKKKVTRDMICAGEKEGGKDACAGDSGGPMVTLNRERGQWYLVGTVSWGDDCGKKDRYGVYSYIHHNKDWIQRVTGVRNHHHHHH
Assay: cell-based or functional assay
Numbered stars: 1 amine (or outer) side, 2 acyl side, 3 side chain; on linkers, the order of the positions; unused ones are H or OH. Bridge positions count the residues as written; N and C are the ends. Square brackets hold non-standard residues; d marks the D form. Ends that are not written are not given here. NH(CH2CH2O)5CH2CO = O=C(COCCOCCOCCOCCOCCN[*:1])[*:2]; Oic = O=C(O)[C@@H]1C[C@@H]2CCCC[C@@H]2N1; NMeI = CC[C@H](C)[C@H](NC)C(=O)O; tBuAla = CC(C)(C)C[C@H](N)C(=O)O; Pen = CC(C)(S)[C@H](N)C(=O)O; NMeC = CN[C@@H](CS)C(=O)O; Nva = CCC[C@H](N)C(=O)O; Sar = CNCC(=O)O
reported-metric: human MASP1 IC50

| binder | result |
| --- | --- |
| A[NMeI]CSRS[tBuAla]PPI[NMeC]IPD-NH2 (disulfide 3-11; N-terminus assumed; SMILES CC[C@H](C)[C@@H]1NC(=O)[C@@H]2CCCN2C(=O)[C@@H]2CCCN2C(=O)[C@H](CC(C)(C)C)NC(=O)[C@H](CO)NC(=O)[C@H](CCCNC(=N)N)NC(=O)[C@H](CO)NC(=O)[C@@H](NC(=O)[C@H]([C@@H](C)CC)N(C)C(=O)[C@H](C)N)CSSC[C@@H](C(=O)N[C@H](C(=O)N2CCC[C@H]2C(=O)N[C@@H](CC(=O)O)C(N)=O)[C@@H](C)CC)N(C)C1=O) [A-((N-Me)I)-C+SRS-((tBu)A)-PPI-((N-Me)C)+IPD-NH2] | 1.2 nM |
| [Nva]ICSRS[tBuAla]PPI[NMeC]I-NH2 (disulfide 3-11; N-terminus assumed; SMILES CCC[C@H](N)C(=O)N[C@H](C(=O)N[C@H]1CSSC[C@@H](C(=O)N[C@H](C(N)=O)[C@@H](C)CC)N(C)C(=O)[C@H]([C@@H](C)CC)NC(=O)[C@@H]2CCCN2C(=O)[C@@H]2CCCN2C(=O)[C@H](CC(C)(C)C)NC(=O)[C@H](CO)NC(=O)[C@H](CCCNC(=N)N)NC(=O)[C@H](CO)NC1=O)[C@@H](C)CC) [(Nva)-IC+SRS-((tBu)A)-PPI-(((N-Me)C))+I-NH2] | 1.1 nM |
| [Sar]ICSRSLP[Oic]I[Pen]IP-NH2 (disulfide 3-11; also: TFA salt) [((N-Me)G)-IC+SRSLP-(Oic)-I-(Pen)+IP-NH2] | 2.9 nM |
| [Sar]ICSRS[tBuAla]PPI[Pen]IP[NH(CH2CH2O)5CH2CO]-NH2 (disulfide 3-11; N-terminus assumed; SMILES CC[C@H](C)[C@H](NC(=O)CNC)C(=O)N[C@H]1CSSC(C)(C)[C@@H](C(=O)N[C@H](C(=O)N2CCC[C@H]2C(=O)NCCOCCOCCOCCOCCOCC(N)=O)[C@@H](C)CC)NC(=O)[C@H]([C@@H](C)CC)NC(=O)[C@@H]2CCCN2C(=O)[C@@H]2CCCN2C(=O)[C@H](CC(C)(C)C)NC(=O)[C@H](CO)NC(=O)[C@H](CCCNC(=N)N)NC(=O)[C@H](CO)NC1=O) [((N-Me)G)-IC+SRS-((tBu)A)-PPI-(Pen)+IP-(PEG5-CH2CO2H (18 atoms))-NH2] | 2 nM |
| [Nva]ICSRS[tBuAla]PPI[Pen]IPD-NH2 (disulfide 3-11; N-terminus assumed; SMILES CCC[C@H](N)C(=O)N[C@H](C(=O)N[C@H]1CSSC(C)(C)[C@@H](C(=O)N[C@H](C(=O)N2CCC[C@H]2C(=O)N[C@@H](CC(=O)O)C(N)=O)[C@@H](C)CC)NC(=O)[C@H]([C@@H](C)CC)NC(=O)[C@@H]2CCCN2C(=O)[C@@H]2CCCN2C(=O)[C@H](CC(C)(C)C)NC(=O)[C@H](CO)NC(=O)[C@H](CCCNC(=N)N)NC(=O)[C@H](CO)NC1=O)[C@@H](C)CC) [(Nva)-IC+SRS-((tBu)A)-PPI-(Pen)+IPD-NH2] | 2.2 nM |
